Tested on: Penicillium expansum EPS26
Experimental Details: MIC, antifungal growth inhibition in microtiter plates (PDB)
Format: cell-based
Condition Set: Pe, 22°C, seven days, OD 600 nm, lowest concentration with no growth, given as interval of tested concentrations, three replicates, experiment repeated twice
Measured Attribute: MIC

1. CCCCCCCCCCCC(=O)NCCCC[C@H](NC(=O)[C@H](CCCCN)NC(=O)[C@H](CC(C)C)NC(=O)[C@@H](NC(=O)[C@H](CCCCN)NC(=O)[C@H](CCCCN)NC(=O)[C@H](Cc1ccccc1)NC(=O)[C@H](CC(C)C)NC(=O)[C@H](CCCCN)NC(=O)[C@H](CCCCN)NC(C)=O)[C@@H](C)CC)C(=O)N[C@@H](CC(C)C)C(N)=O    12.5 to 25 µM
2. CCCCCC(=O)NCCCC[C@H](NC(=O)[C@H](CCCCN)NC(C)=O)C(=O)N[C@@H](CC(C)C)C(=O)N[C@@H](Cc1ccccc1)C(=O)N[C@@H](CCCCN)C(=O)N[C@@H](CCCCN)C(=O)N[C@H](C(=O)N[C@@H](CC(C)C)C(=O)N[C@@H](CCCCN)C(=O)N[C@@H](Cc1ccc(O)cc1)C(=O)N[C@@H](CC(C)C)C(N)=O)[C@@H](C)CC    1.6 to 3.1 µM
3. CCCCCC(=O)NCCCC[C@H](NC(=O)[C@H](CC(C)C)NC(=O)[C@@H](NC(=O)[C@H](CCCCN)NC(=O)[C@H](CCCCN)NC(=O)[C@H](Cc1ccccc1)NC(=O)[C@H](CC(C)C)NC(=O)[C@H](CCCCN)NC(=O)[C@H](CCCCN)NC(C)=O)[C@@H](C)CC)C(=O)N[C@@H](Cc1ccc(O)cc1)C(=O)N[C@@H](CC(C)C)C(N)=O    3.1 to 6.2 µM
4. CCCCCC(=O)NCCCC[C@H](NC(C)=O)C(=O)N[C@@H](CCCCN)C(=O)N[C@@H](CC(C)C)C(=O)N[C@@H](Cc1ccccc1)C(=O)N[C@@H](CCCCN)C(=O)N[C@@H](CCCCN)C(=O)N[C@H](C(=O)N[C@@H](CC(C)C)C(=O)N[C@@H](CCCCN)C(=O)N[C@@H](Cc1ccc(O)cc1)C(=O)N[C@@H](CC(C)C)C(N)=O)[C@@H](C)CC    1.6 to 3.1 µM
5. CCCC(=O)NCCCC[C@H](NC(=O)[C@H](CCCCN)NC(=O)[C@H](CCCCN)NC(C)=O)C(=O)N[C@@H](Cc1ccccc1)C(=O)N[C@@H](CCCCN)C(=O)N[C@@H](CCCCN)C(=O)N[C@H](C(=O)N[C@@H](CC(C)C)C(=O)N[C@@H](CCCCN)C(=O)N[C@@H](Cc1ccc(O)cc1)C(=O)N[C@@H](CC(C)C)C(N)=O)[C@@H](C)CC    3.1 to 6.2 µM

* * *

Below: a set of entries, each annotated with reported MIC.
Test system: Penicillium expansum EPS26
Experimental Details: MIC, antifungal growth inhibition in microtiter plates (PDB)
Type: cell-based
Condition Set: Pe, 22°C, seven days, OD 600 nm, lowest concentration with no growth, given as interval of tested concentrations, three replicates, experiment repeated twice
Measured Attribute: MIC

1. CCCCCCCCCCCC(=O)NCCCC[C@H](NC(=O)[C@H](CCCCN)NC(=O)[C@H](Cc1ccccc1)NC(=O)[C@H](CC(C)C)NC(=O)[C@H](CCCCN)NC(=O)[C@H](CCCCN)NC(C)=O)C(=O)N[C@H](C(=O)N[C@@H](CC(C)C)C(=O)N[C@@H](CCCCN)C(=O)N[C@@H](Cc1ccc(O)cc1)C(=O)N[C@@H](CC(C)C)C(N)=O)[C@@H](C)CC    12.5 to 25 µM
2. CCCC(=O)NCCCC[C@H](NC(=O)[C@H](CC(C)C)NC(=O)[C@H](CCCCN)NC(=O)[C@H](CCCCN)NC(C)=O)C(=O)N[C@@H](CCCCN)C(=O)N[C@@H](CCCCN)C(=O)N[C@H](C(=O)N[C@@H](CC(C)C)C(=O)N[C@@H](CCCCN)C(=O)N[C@@H](Cc1ccc(O)cc1)C(=O)N[C@@H](CC(C)C)C(N)=O)[C@@H](C)CC    6.2 to 12.5 µM
3. CCCCCCCCCCCC(=O)NCCCC[C@H](NC(=O)[C@H](CCCCN)NC(=O)[C@H](CCCCN)NC(C)=O)C(=O)N[C@@H](Cc1ccccc1)C(=O)N[C@@H](CCCCN)C(=O)N[C@@H](CCCCN)C(=O)N[C@H](C(=O)N[C@@H](CC(C)C)C(=O)N[C@@H](CCCCN)C(=O)N[C@@H](Cc1ccc(O)cc1)C(=O)N[C@@H](CC(C)C)C(N)=O)[C@@H](C)CC    12.5 to 25 µM
4. CC[C@H](C)[C@H](NC(=O)[C@H](CCCCN)NC(=O)[C@H](CCCCN)NC(=O)[C@H](Cc1ccccc1)NC(=O)[C@H](CC(C)C)NC(=O)[C@H](CCCCN)NC(=O)[C@@H](N)CCCCN)C(=O)N[C@@H](CC(C)C)C(=O)N[C@@H](CCCCN)C(=O)N[C@@H](Cc1ccc(O)cc1)C(=O)N[C@@H](CC(C)C)C(N)=O    >25 µM
5. CCCC(=O)NCCCC[C@H](NC(=O)[C@H](Cc1ccccc1)NC(=O)[C@H](CC(C)C)NC(=O)[C@H](CCCCN)NC(=O)[C@H](CCCCN)NC(C)=O)C(=O)N[C@@H](CCCCN)C(=O)N[C@H](C(=O)N[C@@H](CC(C)C)C(=O)N[C@@H](CCCCN)C(=O)N[C@@H](Cc1ccc(O)cc1)C(=O)N[C@@H](CC(C)C)C(N)=O)[C@@H](C)CC    12.5 to 25 µM
6. CCCCCCCCCCCC(=O)NCCCC[C@H](NC(=O)[C@H](CCCCN)NC(C)=O)C(=O)N[C@@H](CC(C)C)C(=O)N[C@@H](Cc1ccccc1)C(=O)N[C@@H](CCCCN)C(=O)N[C@@H](CCCCN)C(=O)N[C@H](C(=O)N[C@@H](CC(C)C)C(=O)N[C@@H](CCCCN)C(=O)N[C@@H](Cc1ccc(O)cc1)C(=O)N[C@@H](CC(C)C)C(N)=O)[C@@H](C)CC    >25 µM
7. CCCCCCCCCCCC(=O)NCCCC[C@H](NC(=O)[C@H](CCCCN)NC(=O)[C@H](CCCCN)NC(=O)[C@H](Cc1ccccc1)NC(=O)[C@H](CC(C)C)NC(=O)[C@H](CCCCN)NC(=O)[C@H](CCCCN)NC(C)=O)C(=O)N[C@@H](CC(C)C)C(=O)N[C@@H](CCCCN)C(=O)N[C@@H](Cc1ccc(O)cc1)C(=O)N[C@@H](CC(C)C)C(N)=O    >25 µM
